Reported IC50 by item:
target: NK1 receptor (Homo sapiens, UniProt P25103); construct: Measurement of NK1 Receptor Mediated Intracellular [Ca^2+]; Mobilization in U251 MG Cells Using FLIPR; endogenous in cells; host or cells: U251 MG cells; assay: NK1 receptor mediated intracellular [Ca2+] mobilization in U251 MG cells using FLIPR; type: cell-based; settings: antagonist potency against Substance P (EC80), normalized to 100 nM Aprepitant, read-out: U251MG (FLIPR pIC50) (converted)
Sequence (P25103 whole entry): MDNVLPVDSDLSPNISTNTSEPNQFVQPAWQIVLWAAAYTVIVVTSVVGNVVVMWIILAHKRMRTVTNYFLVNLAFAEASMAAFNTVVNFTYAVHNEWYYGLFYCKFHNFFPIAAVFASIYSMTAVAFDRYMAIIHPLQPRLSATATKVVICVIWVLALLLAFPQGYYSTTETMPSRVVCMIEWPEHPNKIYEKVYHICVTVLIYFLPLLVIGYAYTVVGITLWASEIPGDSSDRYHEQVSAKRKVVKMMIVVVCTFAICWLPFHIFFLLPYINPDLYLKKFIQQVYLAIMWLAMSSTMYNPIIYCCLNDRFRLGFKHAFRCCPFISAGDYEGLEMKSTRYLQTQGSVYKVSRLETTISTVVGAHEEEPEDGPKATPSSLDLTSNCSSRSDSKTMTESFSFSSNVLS

>  <Compound>
Cc1ccccc1C1C2CCCN2CCN1C(=O)N(C)Cc1cc(C(F)(F)F)cc(C(F)(F)F)c1 (single isomer, unassigned) [Compound 62]

>  <Target Or Test System>
NK1 receptor (Homo sapiens, UniProt P25103)

>  <IC50>
0.955 nM

$$$$
>  <Compound>
Cc1ccccc1C1C2CC(CO)CN2CCN1C(=O)N(C)[C@H](C)c1cc(C(F)(F)F)cc(C(F)(F)F)c1 (single isomer, unassigned) [Compound 68]

>  <Target Or Test System>
NK1 receptor (Homo sapiens, UniProt P25103)

>  <IC50>
4.47 nM

$$$$
>  <Compound>
Cc1ccccc1[C@H]1[C@@H]2CC(CCO)(CCO)C(=O)N2CCN1C(=O)N(C)[C@H](C)c1cc(C(F)F)cc(C(F)(F)F)c1 [Compound 98]

>  <Target Or Test System>
NK1 receptor (Homo sapiens, UniProt P25103)

>  <IC50>
0.117 nM

$$$$
>  <Compound>
Cc1ccccc1C1C2CC(CCO)C(=O)N2CCN1C(=O)N(C)C(CCO)c1cc(C(F)(F)F)cc(C(F)(F)F)c1 (single isomer, unassigned) [Compound 34]

>  <Target Or Test System>
NK1 receptor (Homo sapiens, UniProt P25103)

>  <IC50>
15.5 nM

$$$$

###

molecular target: NK1 receptor (Homo sapiens, UniProt P25103); construct: Measurement of NK1 Receptor Mediated Intracellular [Ca^2+]; Mobilization in U251 MG Cells Using FLIPR; endogenous in cells; host or cells: U251 MG cells; experiment: NK1 receptor mediated intracellular [Ca2+] mobilization in U251 MG cells using FLIPR; assay type: cell-based; details: antagonist potency against Substance P (EC80), normalized to 100 nM Aprepitant, read-out: U251MG (FLIPR pIC50) (converted)
Reported Property: IC50 (nM)

>  <Compound>
CCc1cc([C@@H](C)N(C)C(=O)N2CCN3C(=O)CC[C@H]3[C@@H]2c2ccccc2C)cc(C(F)(F)F)c1

>  <Reported Property>
IC50

>  <Comparison Operator>
=

>  <Observed Result>
0.1

$$$$
>  <Compound>
Cc1ccccc1C1C2CC(CN3CCOCC3)C(=O)N2CCN1C(=O)N(C)[C@H](C)c1cc(C(F)(F)F)cc(C(F)(F)F)c1 (single isomer, unassigned) [Compound 74]

>  <Reported Property>
IC50

>  <Comparison Operator>
=

>  <Observed Result>
0.0891

$$$$
>  <Compound>
Cc1ccccc1[C@H]1[C@@H]2CC(CCO)(CCO)C(=O)N2CCN1C(=O)N(C)[C@H](C)c1cc(C(F)F)cc(C(F)(F)F)c1 [Compound 97]

>  <Reported Property>
IC50

>  <Comparison Operator>
=

>  <Observed Result>
0.0501

$$$$
>  <Compound>
Cc1cc(CN(C)C(=O)N2CCN3C(=O)C(CCO)(CCO)C[C@H]3[C@@H]2c2ccccc2C)cc(C(F)(F)F)c1

>  <Reported Property>
IC50

>  <Comparison Operator>
=

>  <Observed Result>
0.0631

$$$$
>  <Compound>
CCc1cc([C@@H](C)N(C)C(=O)N2CCN3C(=O)C(CCO)(CCO)C[C@H]3[C@@H]2c2ccccc2C)cc(C(F)(F)F)c1

>  <Reported Property>
IC50

>  <Comparison Operator>
=

>  <Observed Result>
0.0631

$$$$
>  <Compound>
Cc1ccccc1C1C2CCCN2CCN1C(=O)N(C)Cc1cc(C(F)(F)F)cc(C(F)(F)F)c1 (single isomer, unassigned) [Compound 61]

>  <Reported Property>
IC50

>  <Comparison Operator>
>

>  <Observed Result>
100

$$$$

###

assay: Hepatic intrinsic clearance following incubation in human liver microsomes; assay type: in vitro ADME; conditions: NADPH regenerating system, 0-30 min, 37 °C

>  <Molecule>
COc1cc([C@@H](C)N(C)C(=O)N2CCN3C(=O)C(CCO)(CCO)C[C@H]3[C@@H]2c2ccccc2C)cc(C(F)(F)F)c1

>  <Human in vitro Clint (mL/min/g liver)>
8.5

$$$$
>  <Molecule>
Cc1cc([C@@H](C)N(C)C(=O)N2CCN3C(=O)C(CO)C[C@H]3[C@@H]2c2ccccc2C)cc(C(F)(F)F)c1 (stereo partly shown)

>  <Human in vitro Clint (mL/min/g liver)>
5.6

$$$$
>  <Molecule>
Cc1cc([C@@H](CO)N(C)C(=O)N2CCN3C(=O)C(CCO)(CCO)C[C@H]3[C@@H]2c2ccccc2C)cc(C(F)(F)F)c1

>  <Human in vitro Clint (mL/min/g liver)>
3.7

$$$$
>  <Molecule>
Cc1ccccc1[C@H]1[C@@H]2CC(CCO)(CCO)C(=O)N2CCN1C(=O)N(C)[C@H](C)c1cccc(C(F)(F)F)c1

>  <Human in vitro Clint (mL/min/g liver)>
13

$$$$
